System: NCI-H226
Assay: NCI tumour cell line growth inhibition, 48 h
Calls of active or inactive are those of the source. No stated cut-off is given here; in the data, active = GI50 up to about 1.1 µM and inactive = higher. Starred links: 1 amine or outer side, 2 acyl side, 3 side chain; linkers in the order of their positions; H or OH if unused. Positions of bridges follow the written chain, without caps; N, C: chain ends. Non-standard residues stand in square brackets, D forms with d. Residues, ends and D or L forms follow the SMILES beside them. Chains are numbered I, II in the order given. Actinocin(1to9) = Cc1c2oc3c(C)ccc(C(=O)[*:2])c3nc-2c(C(=O)[*:1])c(N)c1=O; aThr = C[C@H](O)[C@H](N)C(=O)O; NMeV = CN[C@H](C(=O)O)C(C)C; Sar = CNCC(=O)O
Result category, one only: active, inactive

These recorded examples may help you get a feel for the data.
Compound | Class
COc1ccc(-c2c(C3=NCCCN3)nnn2-c2ccc([N+](=O)[O-])cc2)cc1 | inactive
COc1cc2c(cc1OC)C(C(c1ccccc1)c1ccccc1)N(C)CC2 (stereo unspecified) | inactive
CCCCCCCCCCCCCC(=O)NO | inactive

Q. // outcome(item) with item = C[n+]1ccc(/C2=C3\C=CC(=N3)/C(c3cc[n+](C)cc3)=c3/cc/c([nH]3)=C(\c3cc[n+](C)cc3)C3=N/C(=C(/c4cc[n+](C)cc4)C4C=CC2N4)C=C3)cc1
A. inactive

Q. // outcome(item) with item = Cc1c2oc3c(C)ccc(C(=O)N[C@@H]4C(=O)N[C@H](C(C)C)C(=O)N5CCC[C@H]5C(=O)N(C)CC(=O)N(C)[C@@H](C(C)C)C(=O)O[C@H]4C)c3nc-2c(C(=O)N[C@@H]2C(=O)N[C@H](C(C)C)C(=O)N3CCC[C@H]3C(=O)N(C)CC(=O)N(C)[C@@H](C(C)C)C(=O)O[C@H]2C)c(N)c1=O (I: [aThr][dV]P[Sar][NMeV] / II: [aThr][dV]P[Sar][NMeV]; ester I:1-I:C, II:1-II:C; linker I:N-II:N via Actinocin(1to9))
A. active

Q. // outcome(item) with item = CSC1=C(C#N)C(=O)N(c2ccc(C)cc2)C(=O)C1C#N (stereo unspecified)
A. inactive
